Assay Info: qHTS Assay for Lipid Storage Modulators in Drosophila S3 Cells
Run Parameters: BODIPY lipid droplet fluorescence, 18-24 h, cells fed with added oleic acid; series mostly up to 46.1 µM
Screen size: about 320,000 compounds; about 2,100 (0.66%) were called active. Another 53% or so got no clear call; they are omitted. Calls come from the whole dose curve; as a rule, active = well fitted inhibition curve with a large enough effect in the signal ratio, with a control signal flat (not every such curve was filed as active); inconclusive = small, poorly fitted or top-dose-only effect, or effect the other way, or a change in a side signal; inactive = flat fitted curve, though single readings scatter; the % refers to the signal ratio. The entries come from a sample that favours actives as a whole.
Possible outcomes: TRUE = active, FALSE = inactive

[[record]]
molecule = "CC(=O)Nc1ccc(NC(=S)NC(=O)C2CCCC2)cc1"
class_name = "FALSE"

[[record]]
molecule = "O=S(=O)(NCC(c1ccco1)N1CCN(c2ccccc2F)CC1)c1ccccc1 (stereo unspecified)"
class_name = "FALSE"

[[record]]
molecule = "Cc1cc(C(=O)N/N=C/c2cccn2C)no1"
class_name = "FALSE"

[[record]]
molecule = "O=C(Nc1ccccc1)Nc1n[nH]c2nnc(-c3ccccc3)c(-c3ccccc3)c12"
class_name = "FALSE"

[[record]]
molecule = "CC(=O)Nc1ccc(NC(=O)c2cc(-n3cnnc3)ccc2Cl)cc1"
class_name = "FALSE"

[[record]]
molecule = "Cc1ccc(NC(=O)NCc2cccn2C)cc1C"
class_name = "FALSE"

[[record]]
molecule = "COC(CNC(=O)c1ccc(N2CCC3(CC2)OCCO3)c([N+](=O)[O-])c1)OC"
class_name = "FALSE"

[[record]]
molecule = "COC(CNC(=O)c1ccc(N2CCc3ccccc32)c([N+](=O)[O-])c1)OC"
class_name = "TRUE"

[[record]]
molecule = "COc1ccc(NC(=S)NC(=O)C2CCC2)cc1"
class_name = "FALSE"

[[record]]
molecule = "O=C(CSc1nnc(-c2cccnc2)n1CCN1CCCCC1)Nc1cccc(Cl)c1"
class_name = "FALSE"

[[record]]
molecule = "CC(C)c1nnc(NC(=O)COc2ccccc2[N+](=O)[O-])s1"
class_name = "FALSE"


---

cell number change for assorted compounds
Assay Info: qHTS Assay for Lipid Storage Modulators in Drosophila S3 Cells;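 for cell number change: cells counted by Cell Tracker Red CMTPX staining in the red channel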
Run Parameters: BODIPY lipid droplet fluorescence, 18-24 h, cells fed with added oleic acid; measured here: cell count max response
Among all 320,000 compounds or so, about 2,100 (0.66%) were called active. Roughly 53% stayed inconclusive and do not appear here. Shown is part of a subset that was picked to be rich in actives.
Experimental Readout: cell number change (%)

[[record]]
compound = "O=C(Nn1c(=O)[nH]c2ccsc2c1=O)c1ccccc1"
unit = "%"
value_measured = -16.2

[[record]]
compound = "Cc1ccccc1CCN(C(=O)CN1C(=O)c2ccccc2S1(=O)=O)C(C(=O)NCC1CCCO1)c1ccncc1 (stereo not given)"
unit = "%"
value_measured = -7.43

[[record]]
compound = "O=C(O)CC(C(=O)Nc1ccc(Cl)cc1Cl)C1CCCO1 (stereo not given)"
unit = "%"
value_measured = 5.73

[[record]]
compound = "Cc1cc(C)c(C)c(S(=O)(=O)N2CCC(C(=O)N3CCCC3)CC2)c1C"
unit = "%"
value_measured = 0.752

[[record]]
compound = "COc1ccc(C(=O)N2CCc3ccc(NC(=O)c4ccccn4)cc3C2)cc1F"
unit = "%"
value_measured = 5.43

[[record]]
compound = "CSc1cccc(NC(=O)N2CCc3ccc(NC(=O)c4ccccn4)cc3C2)c1"
unit = "%"
value_measured = -11.2

[[record]]
compound = "CCN(CC)S(=O)(=O)c1cccc(NC(=O)c2ccc(SC)cc2OC)c1"
unit = "%"
value_measured = 22.2

[[record]]
compound = "Cc1ccc(OCC(=O)NNC(=S)NC(=O)c2ccc(Br)o2)c(C)c1"
unit = "%"
value_measured = 7.54

[[record]]
compound = "O=C1NC(=S)N/C1=C\\c1ccccc1OCc1ccc(C(=O)O)cc1"
unit = "%"
value_measured = -1.56

[[record]]
compound = "COCC(C)n1c(C)cc(C(=O)COC(=O)CN=C2NS(=O)(=O)c3ccccc32)c1C (stereo not given)"
unit = "%"
value_measured = 10.7

